biological target: JAK1 (Homo sapiens, UniProt P23458); construct: 5 μl of catalytic domain recombinant Kinase enzyme+Tyr peptide substrate (Invitrogen, CA); experiment: Z'-LYTE kinase assay JAK1
Sequence (P23458 875-1153 limits assumed): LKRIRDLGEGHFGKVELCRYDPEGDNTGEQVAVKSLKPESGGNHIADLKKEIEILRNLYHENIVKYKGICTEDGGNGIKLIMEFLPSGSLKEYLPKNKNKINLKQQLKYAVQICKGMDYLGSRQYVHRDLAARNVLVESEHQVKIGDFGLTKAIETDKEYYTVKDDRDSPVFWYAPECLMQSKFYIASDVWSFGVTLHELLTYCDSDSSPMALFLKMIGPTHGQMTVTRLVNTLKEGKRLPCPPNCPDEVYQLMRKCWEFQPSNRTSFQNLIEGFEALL
measured-attribute: IC50

COC[C@@H](Nc1cc(Nc2ccc(C(=O)N(C)C)cc2)ncc1C(N)=O)c1ccccc1; > 1 µM
NC(=O)c1cnc(Nc2cccc(OCCN3CCCC3)c2)cc1NCc1cccc(F)c1; 0.1 to 1 µM
NC(=O)c1cnc(Nc2ccc3cccnc3c2)cc1NCc1ccccc1; > 1 µM
COCCOc1ccc(Nc2cc(NCc3ccccc3)c(C(N)=O)cn2)cc1; > 1 µM
COCC(=O)N1CCC[C@H](CNc2cc(Nc3ccc(C(=O)N4CCCC4)cc3)ncc2C(N)=O)C1; > 1 µM

stdin: Data request, read-out IC50, for `CCC(=O)N(C)c1ccc(Nc2cc(NCc3cccc4[nH]ccc34)c(C(N)=O)cn2)cc1`
stdout: 0.01 to 0.1 µM

stdin: Input `CC(C)(C)CNc1cc(Nc2ccc(C3CCOCC3)cc2)ncc1C(N)=O`
stdout: 0.1 to 1 µM

stdin: Now the same for `CC(=O)N1CCN(c2ccc(Nc3cc(NCC4CC4)c(C(N)=O)cn3)cc2)CC1`
stdout: > 1 µM

----------
biological target: JAK3 (Homo sapiens); construct: 5 μl of catalytic domain recombinant Kinase enzyme+Tyr peptide substrate (Invitrogen, CA); experiment: Z'-LYTE kinase assay JAK3
pIC50: −log10 of the molar value.
In this section we review reported pIC50 values for a set of compounds.

CCC(=O)N1CCN(c2ccc(Nc3cc(NC4(c5ccccc5)CC4)c(C(N)=O)cn3)cc2)CC1 [Example 124]; 7.00 to 8.00
CN1C(=O)COc2ccc(Nc3cc(NCc4ccccc4)c(C(N)=O)cn3)cc21 [Example 85]; 7.00 to 8.00
CN(C(=O)C1CC1)c1ccc(Nc2cc(NCc3cccc(F)n3)c(C(N)=O)cn2)cc1 [Example 489]; 7.00 to 8.00

stdin: Quick check: pIC50 of NC(=O)c1cnc(Nc2ccc(C3CCOCC3)cc2)cc1NCc1cccnc1 [Example 185] ?
stdout: 7.00 to 8.00

stdin: Proceed to NC(=O)c1cnc(Nc2cccc(N3CCOCC3)c2)cc1NCc1cccc(F)c1 [Example 65]
stdout: 8.00 to 9.00

stdin: Now give it for CC(=O)N1CC(c2ccc(Nc3cc(NCc4ccccc4)c(C(N)=O)cn3)cc2)C1 [Example 324] too.
stdout: 8.00 to 9.00

stdin: Repeat for the following compound: CN(C)C(=O)c1ccc(Nc2cc(NCc3cccc(-c4ccccn4)c3)c(C(N)=O)cn2)cc1 [Example 421]
stdout: 7.00 to 8.00

stdin: Another: CC(=O)N1CCN(c2ccc(Nc3cc(NCc4ccc(F)cc4)c(C(N)=O)cn3)cc2)CC1 [Example 252]
stdout: 7.00 to 8.00

stdin: COc1ccc(Nc2cc(NCc3c(F)cccc3F)c(C(N)=O)cn2)cc1 [Example 82] , same question.
stdout: 7.00 to 8.00

----------
In this section, each of the molecules is paired with its reported pIC50.
target: JAK3 (Homo sapiens, UniProt P52333); construct: 5 μl of catalytic domain recombinant Kinase enzyme+Tyr peptide substrate (Invitrogen, CA); experiment: Z'-LYTE kinase assay JAK3
Sequence (P52333 822-1111 limits assumed): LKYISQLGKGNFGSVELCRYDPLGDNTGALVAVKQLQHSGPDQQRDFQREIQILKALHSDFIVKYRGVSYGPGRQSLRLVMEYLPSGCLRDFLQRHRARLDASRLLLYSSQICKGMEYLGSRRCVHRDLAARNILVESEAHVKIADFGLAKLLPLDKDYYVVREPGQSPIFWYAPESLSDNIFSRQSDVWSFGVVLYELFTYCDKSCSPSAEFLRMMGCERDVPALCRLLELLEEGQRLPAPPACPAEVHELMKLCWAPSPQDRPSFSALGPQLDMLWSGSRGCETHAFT
pIC50: −log10 of the molar value.

Solved entries (count: 7):
NC(=O)c1cnc(Nc2ccc(OC(F)F)cc2)cc1NCc1cncc(F)c1; 7.00 to 8.00
COCC(=O)N1CCC[C@H](CNc2cc(Nc3ccc(C(=O)N4CCCC4)cc3)ncc2C(N)=O)C1; 7.00 to 8.00
Cc1cc(Nc2cc(NCc3cccc4ccsc34)c(C(N)=O)cn2)ccc1C(=O)N1CCC1; > 9.00
C#CCNc1cc(Nc2ccc(C3CCOCC3)cc2)ncc1C(N)=O; 6.00 to 7.00
CC(=O)N1CCC[C@H](CNc2cc(Nc3ccc(C(=O)N(C)C)c(F)c3)ncc2C(N)=O)C1; 6.00 to 7.00
CC(=O)N1CCC[C@H](CNc2cc(Nc3ccc(C(=O)N4CCCC4)cc3)ncc2C(N)=O)C1; 7.00 to 8.00
NC(=O)c1cnc(Nc2ccc(S(=O)(=O)N3CCC3)cc2)cc1NCc1ccccc1; 6.00 to 7.00

stdin: pIC50 lookup needed for `CNC(=O)c1cccc(Nc2cc(NCc3ccccc3)c(C(N)=O)cn2)c1` , thanks.
stdout: 7.00 to 8.00

----------
target: JAK3 (Homo sapiens, UniProt P52333); construct: 5 μl of catalytic domain recombinant Kinase enzyme+Tyr peptide substrate (Invitrogen, CA); test: Z'-LYTE kinase assay JAK3
measured-attribute: IC50

Answered cases to consult:
NC(=O)c1cnc(Nc2ccc(C3CCN(C4CCCC4)CC3)cc2)cc1NCc1ccccc1F; 1 to 10 nM
CCC(=O)N1CCC(c2ccc(Nc3cc(NCC4CCOCC4)c(C(N)=O)cn3)cc2)CC1; 10 to 100 nM
CC(=O)N1CC(c2ccc(Nc3cc(NCc4cncc(F)c4)c(C(N)=O)cn3)cc2)C1; 10 to 100 nM
Cc1cc(Nc2cc(NCc3ccccc3)c(C(N)=O)cn2)ccc1C(=O)N(C)C1CC1; 1 to 10 nM
CNC(=O)[C@H]1CCCN(c2ccc(Nc3cc(NCc4ccccc4)c(C(N)=O)cn3)cc2)C1; 1 to 10 nM
N#CCc1ccc(Nc2cc(NCc3ccccc3)c(C(N)=O)cn2)cc1; 10 to 100 nM
NC(=O)c1cnc(Nc2ccc(N3CCCCC3=O)cc2)cc1NCc1ccccc1F; 1 to 10 nM

Please find the next compound below.
stdin: Recorded IC50 of `CCC(=O)N1CCC(c2ccc(Nc3cc(NCc4cccc(F)c4F)c(C(N)=O)cn3)cc2)CC1` , please.
stdout: 1 to 10 nM

----------
target: JAK1 (Homo sapiens, UniProt P23458); construct: 5 μl of catalytic domain recombinant Kinase enzyme+Tyr peptide substrate (Invitrogen, CA); experiment: Z'-LYTE kinase assay JAK1
pIC50: −log10 of the molar value.
measured-attribute: pIC50

Worked cases, answers included:
CCS(=O)(=O)N1CCC[C@H](CNc2cc(Nc3ccc(OC)cc3)ncc2C(N)=O)C1; < 6.00
CCC(=O)N1CCC(c2ccc(Nc3cc(NCc4ccccn4)c(C(N)=O)cn3)cc2)CC1; < 6.00
Cc1cc(Nc2cc(NCc3ccccc3)c(C(N)=O)cn2)ccc1C(=O)N(C)C1CC1; 6.00 to 7.00
CC(=O)N1CCN(c2ccc(Nc3cc(NCc4ccc5c(c4)OCO5)c(C(N)=O)cn3)cc2)CC1; < 6.00
NC(=O)c1cnc(Nc2ccc(C3CNC3)cc2)cc1NCc1ccccc1; < 6.00
CN(C)S(=O)(=O)N1CC(c2ccc(Nc3cc(NCc4ccccc4)c(C(N)=O)cn3)cc2)C1; < 6.00
NC(=O)c1cnc(Nc2ccc(C3CCOCC3)cc2)cc1NCc1cn(CCN2CCCCC2)nn1; < 6.00
CCC(=O)N1CCC(c2ccc(Nc3cc(NCc4cc(F)cc(F)c4)c(C(N)=O)cn3)cc2)CC1; < 6.00
NC(=O)c1cnc(Nc2ccc(OCCN3CCCC3)cc2)cc1NC1(c2ccccc2)CC1; < 6.00
CC(=O)N1CCN(c2ccc(Nc3cc(NCCc4ccccc4)c(C(N)=O)cn3)cc2)CC1; < 6.00

stdin: Sample `NC(=O)c1cnc(Nc2ccc(C3CCN(CC(F)F)CC3)cc2)cc1NCc1cccc(F)c1F` — what was its pIC50?
stdout: < 6.00

stdin: Now consider `CC(C)c1ccc(Nc2cc(NCc3ccccc3F)c(C(N)=O)cn2)cc1` and answer again.
stdout: < 6.00

stdin: // same read-out, input: `NC(=O)c1cnc(Nc2ccc(N3CCOCC3)cc2)cc1NCc1ccccc1`
stdout: < 6.00

stdin: What do you have for `COCCOc1cccc(Nc2cc(NCc3ccccc3)c(C(N)=O)cn2)c1` ?
stdout: 6.00 to 7.00

stdin: Param item: `CC(=O)N1CCN(c2ccc(Nc3cc(NCc4cccc(F)c4)c(C(N)=O)cn3)cc2)CC1`
stdout: 6.00 to 7.00

stdin: Then this compound: `COCC(=O)N1CC(c2ccc(Nc3cc(NCc4cccc5ccsc45)c(C(N)=O)cn3)cc2)C1`
stdout: 6.00 to 7.00

stdin: Record: `COc1ccc(Nc2cc(Nc3ccc(N4CCOCC4)cc3)c(C(N)=O)cn2)cc1`
stdout: < 6.00

----------
Listed here are molecules together with their documented IC50.
target: JAK2 (Homo sapiens, UniProt O60674); construct: 5 μl of catalytic domain recombinant Kinase enzyme+Tyr peptide substrate (Invitrogen, CA); experiment: Z'-LYTE kinase assay JAK2
Sequence (O60674 849-1124 limits assumed): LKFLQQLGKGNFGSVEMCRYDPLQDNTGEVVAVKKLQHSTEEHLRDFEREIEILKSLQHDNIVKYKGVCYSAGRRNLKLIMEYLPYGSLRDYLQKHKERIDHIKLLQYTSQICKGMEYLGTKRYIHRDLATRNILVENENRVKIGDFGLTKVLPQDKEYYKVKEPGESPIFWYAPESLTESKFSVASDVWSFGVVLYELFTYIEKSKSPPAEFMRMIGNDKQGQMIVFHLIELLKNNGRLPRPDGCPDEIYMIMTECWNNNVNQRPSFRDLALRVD

Use the examples below as a reference point.
NC(=O)c1cnc(Nc2ccc(C3CNC3)cc2)cc1NCc1cccc(F)c1F; 0.01 to 0.1 µM
CCC(=O)N(C)c1ccc(Nc2cc(NCc3cccc4cc[nH]c34)c(C(N)=O)cn2)cc1; 0.1 to 1 µM
NC(=O)c1cnc(Nc2ccc(N3CCOCC3)c(Cl)c2)cc1NCc1ccccc1; 0.1 to 1 µM
C[C@@H](Nc1nc(Nc2ccc(OCCN3CCCC3)cc2)c(F)cc1C(N)=O)c1ccccc1; > 1 µM

stdin: Return IC50 measured with JAK2 (Homo sapiens, UniProt O60674) given this molecule: `CN(C)C(=O)C1CCN(c2ccc(Nc3cc(NCc4cccc(-c5ccncc5)c4)c(C(N)=O)cn3)cc2)CC1`
stdout: 0.1 to 1 µM

stdin: Can you check `CC(=O)N(C)c1ccc(Nc2cc(NCc3cccc4[nH]ccc34)c(C(N)=O)cn2)cc1` next?
stdout: 0.01 to 0.1 µM
